Test system: CP256
Experiment: qHTS profiling for inhibitors of Plasmodium falciparum proliferation (AID 504749); further: nearly all actives have a fitted effect of over 60% in size; further: potency means the concentration at half of the fitted maximal effect
Conditions: P. falciparum in erythrocytes, SYBR Green DNA, 72 h; series mostly up to 28.7 µM
Records with an inconclusive call do not appear. Active and inactive are the calls of the source. The call rests on the fitted dose curve; in most records, active means well fitted inhibition curve with a large enough effect; inconclusive means small, poorly fitted or top-dose-only effect; inactive means flat fitted curve, though single readings scatter.
value.kind: Potency

Reference set (5 entries):
>  <compound>
c1ccc(OCc2ccc(CCCN3CCOCC3)cc2)cc1

>  <result>
inactive

$$$$
>  <compound>
C=C(CC)C(=O)c1ccc(OCC(=O)O)c(Cl)c1Cl

>  <result>
4.47 µM (active)

$$$$
>  <compound>
CCCCCCCCCCCCCCCCCC(=O)OCC(O)CO (centres undefined)

>  <result>
inactive

$$$$
>  <compound>
CC(=O)Nc1c(I)cc(I)c(C(=O)O)c1I

>  <result>
inactive

$$$$
>  <compound>
CCCCOc1ccc(C(=O)CCN2CCCCC2)cc1

>  <result>
inactive

$$$$

Ask | Report Potency for CC(C)COC(=O)OCN1C(=O)CN(CCN2CC(=O)N(COC(=O)OCC(C)C)C(=O)C2)CC1=O tested on CP256.
Reply | inactive

Ask | Report Potency for CC(C)(Oc1ccc(Cl)cc1)C(=O)O tested on CP256.
Reply | inactive

Ask | Report Potency for Cc1cc(O)c(C(C)C)cc1Cl tested on CP256.
Reply | inactive

Ask | Report Potency for CN(C)C(=S)SC(=S)N(C)C tested on CP256.
Reply | 10 µM (active)

Ask | Report Potency for O=C1c2ccccc2C(=O)C1c1ccccc1 tested on CP256.
Reply | inactive

Ask | Report Potency for NCCc1ccn[nH]1 tested on CP256.
Reply | inactive

Ask | Report Potency for CC(=O)OCC(=O)[C@@]1(OC(C)=O)[C@@H](C)C[C@H]2[C@@H]3C[C@H](F)C4=CC(=O)C=C[C@]4(C)[C@@]3(F)[C@@H](O)C[C@@]21C tested on CP256.
Reply | inactive

Ask | Report Potency for Oc1ccc(Cl)cc1Sc1cc(Cl)ccc1O tested on CP256.
Reply | inactive

Ask | Report Potency for CCCCCCCCCCCCCCCC[N+](C)(C)CC tested on CP256.
Reply | 5.01 µM (active)

---

Target: Voltage-gated inwardly rectifying potassium channel KCNH2 (Homo sapiens)
Assay: qHTS Assay for Small Molecule Inhibitors of the Human hERG Channel Activity (AID 588834);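 further: lower thallium flux fluorescence means stronger hERG block; nearly all actives have a fitted effect of over 50% in size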
Conditions: U2OS BacMam hERG, FluxOR thallium flux fluorescence; series mostly up to 46.1 µM
Inconclusive results are not listed. Active and inactive are the calls of the source. Calls come from the whole dose curve; as a rule, active = well fitted inhibition curve with a large enough effect; inconclusive = small, poorly fitted or top-dose-only effect; inactive = flat fitted curve, though single readings scatter.
API: response.call in 1 for active, -1 for inactive

Reference set (3 entries):
>  <compound>
CC1(C)O[C@@H]2[C@@H](CO[C@@]3(COS(N)(=O)=O)OC(C)(C)O[C@@H]23)O1

>  <group>
-1

$$$$
>  <compound>
CCCn1c(=O)[nH]c(=O)c2[nH]cnc21

>  <group>
-1

$$$$
>  <compound>
CN1CCN(CCCN2c3ccccc3Sc3ccc(S(=O)(=O)N(C)C)cc32)CC1

>  <group>
1

$$$$

Ask | State the result this test recorded for C#C[C@]1(O)CC[C@H]2[C@@H]3CCc4cc(OC5CCCC5)ccc4[C@H]3CC[C@@]21C .
Reply | -1

Ask | State the result this test recorded for CCCC(=O)O[C@]1(C(=O)CO)CC[C@H]2[C@@H]3CCC4=CC(=O)CC[C@]4(C)[C@H]3[C@@H](O)C[C@@]21C .
Reply | -1

Ask | State the result this test recorded for NCCc1ccn[nH]1 .
Reply | -1

All values here come from PubChem BioAssay (NCATS).
